B1: HDV Ribozyme (parent)
chain: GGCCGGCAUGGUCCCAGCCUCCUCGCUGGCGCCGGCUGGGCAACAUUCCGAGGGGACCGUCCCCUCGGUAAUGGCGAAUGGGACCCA

Variants of: B1
protocol: self-cleavage, relative activity (ratio to wild type); higher = more cleavage; co-transcriptional
So I've got a bunch of variants here, and I need their self-cleavage values.
// return a plain number; no unit text

Please fill in: self-cleavage reported for GGCCGGCAUGGUCCCAGCCUCCUCGCUGGCGCCGGCCGGGCAACAAUCCGAGGGGACCGUCCCCUCGGUAAUGGCGAAUGGGACCCA [U37C U46A] = 0.458

# self-cleavage of GGCCGGCAUGGUCCCAGCCUCCUCCCUGCCGCCGGCUGGGCAACAUUCCGAGGGGACCGUCCCCUCGGUAAUGGCGAAUGGGACCCA [G25C G29C] = 0.0489

The recorded self-cleavage for GGCCGGCAUGGUCCCAGCCUCCUCGCUGGCGCGGGCUGGGCACCAUUCCGAGGGGACCGUCCCCUCGGUAAUGGCGAAUGGGACCCA [C33G A43C] is 0.0723

self-cleavage for GGCUGGCAUGGUCCCAGCCUCCUCGCUGGCGCCGGCUGGGCAACAUUCCGAGGGGACCGUCCCCUCGGUAAUGGCGAAGGGGACCCA [C4U U79G] is 0.185

Entry GGCCGGCAUGGUCCCAGCCUCCUCGCUGGCGCCGGUUGGGCAACAUUCCGAGGGGACCGUCCCCUCGGUAAUGGCGAACGGGACCCA [C36U U79C] — recorded self-cleavage = 0.201

Recorded self-cleavage (variant GGCCGGCAUGGUCCCAGCCUCCUCGCUGACGCCGGCUGGGCAACAUUCCGAGGGGACCGUCCCAUCGGUAAUGGCGAAUGGGACCCA [G29A C64A] ): 0.22
